Provide the recorded differential viability (reversal) for the entries that follow.
experimentalProtocol: reversal of MRP1-mediated doxorubicin resistance, pilot screen, H69AR cells, doxorubicin co-treatment (AID 601)
experimentalSetup: H69AR cells + 2 uM doxorubicin, CellTiter-Glo, 72 h; at 10 µM; stronger effect = higher value
Numeric answer only, unit % assumed.

Entry `O=C(NCCC1=CCCCC1)c1cc2c(s1)CS(=O)(=O)C2` , differential viability (reversal) reported as 4.64

Entry `O=C(OCC#CCSc1nc2ccccc2s1)c1ccco1` , differential viability (reversal) reported as 1.8

Entry CCOc1ccc2[nH]c(=O)c(CN(Cc3nnnn3CCc3ccccc3)CC3CCCO3)cc2c1 (configuration not stated) , differential viability (reversal) reported as 21.2

Entry `CNC(=O)Nc1cccc(C(F)(F)F)c1` , differential viability (reversal) reported as -6.37

Entry `Cc1cc(/C=N/n2cnnc2)c(C)n1-c1ccc(Cl)cc1Cl` , differential viability (reversal) reported as 10.1

Entry O=C(NCc1cccnc1)C1c2ccccc2C(=O)N1Cc1ccco1 (configuration not stated) , differential viability (reversal) reported as 11.6

Entry `CC1CCN(C(=O)CCNS(=O)(=O)c2ccccc2)CC1` , differential viability (reversal) reported as 0.83

Entry CCc1[nH]nc2c1C(c1ccncc1)C(C#N)=C(N)O2 (configuration not stated) , differential viability (reversal) reported as -3.88

Entry `CCC(=O)/C=C1\Sc2ccc(OC)cc2N1CCO` , differential viability (reversal) reported as 2.07

Entry `CN1CCN(CC(=O)Nc2ccc(Cl)cc2Cl)CC1` , differential viability (reversal) reported as 3.29

Entry CCC(Sc1nc2sc(C(=O)OC)c(C)c2c(=O)n1N)C(=O)NCC1CCCO1 (configuration not stated) , differential viability (reversal) reported as -5.51

Entry `N#CCCN(C(=O)Nc1ccc(Cl)cc1)c1ccccc1` , differential viability (reversal) reported as 9.02

====

targetOrTestSystem: Receptor tyrosine-protein kinase erbB-2 (Homo sapiens)
experimentalProtocol: reducers of endogenous Her2 protein level, primary screen, SKBR3 breast tumor cells, AlphaScreen, ATP viability (AID 461);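 note: lower value means less Her2 protein in the cells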
experimentalSetup: 18-24 h, at 10 µM, stronger effect = lower value
// boundary case: Her2 level equal to 90% maps to no; strictly smaller maps to yes

Enquiry: Is it true that Her2 level reported for CCn1c(=O)cc(OCC(=O)NCCCN2CC(C)CC(C)C2)c2ccccc21 (stereo not given) is less than 90%?
Return: yes

Enquiry: Is it true that Her2 level reported for `CC(C)(C)C(=O)CCN1C(=O)C2(OCCO2)c2ccccc21` is less than 90%?
Return: no

Enquiry: Is it true that Her2 level reported for CC(NC(=O)Cc1cccs1)c1ccc2c(c1)OCO2 (stereo not given) is less than 90%?
Return: yes

====

experimentalProtocol: SK-BR-3 cell growth inhibitors, pilot screen, 24 h, human (AID 572);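 note: compound exposure lasted between 18 and 24 h rather than exactly 24 h; 100% = carrier-treated control wells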
experimentalSetup: SK-BR-3 viability, CellTiter-Glo luminescence, at 10 µM, stronger effect = lower value
Provide the recorded viability for the entries that follow.
Numeric answer only, unit % assumed.

Entry `COC(=O)Cc1c(C)nc2nc(-c3ccco3)[nH]n2c1=O` , viability reported as 110

Entry Cc1cccc(C2CC(c3ccc(Br)cc3)Nc3nc(N)nn32)c1 (stereo unspecified) , viability reported as 92.5

Entry `Cc1ccc(S(=O)(=O)Cc2ccc(C(=O)NCc3ccc4c(c3)OCO4)o2)cc1` , viability reported as 98

Entry `CC(=O)Nc1c(-c2ccc(F)cc2)nc2ccccn12` , viability reported as 94.5

Entry `CC1=C(c2ccc(Cl)cc2)[N+](=O)C(C)(C)N1[O-]` , viability reported as 99.5

Entry `O=C(Nc1cccc2ccccc12)N1CCOCC1` , viability reported as 119

Entry COc1ccc(C(=O)N(Cc2ccco2)C(C(=O)NC2CCCC2)c2ccc(O)cc2)cc1OC (stereo unspecified) , viability reported as 77.5

Entry `Cc1cnc(C(=O)OCC(=O)Nc2ccc(Cl)cc2Cl)cn1` , viability reported as 89.5

Entry `Cn1cnnc1SCC(=O)NCc1cccc(C(F)(F)F)c1` , viability reported as 88

Entry CSCCC(C(=O)Nc1ccc2c(c1)OCO2)N1C(=O)c2ccccc2C1=O (stereo unspecified) , viability reported as 91

Entry Cc1[nH]c(=O)[nH]c(=O)c1S(=O)(=O)N1CCCC(C(=O)NCc2ccco2)C1 (stereo unspecified) , viability reported as 102

====

experimentalProtocol: reversal of MRP1-mediated doxorubicin resistance, pilot screen, H69AR cells, doxorubicin co-treatment (AID 601)
experimentalSetup: H69AR cells + 2 uM doxorubicin, CellTiter-Glo, 72 h; measured here: viability with 2 uM doxorubicin; at 10 µM; stronger effect = lower value
// boundary case: viability equal to 90% maps to No; strictly smaller maps to Yes

Enquiry: Is it true that viability reported for `Cc1ccc(C)c(S(=O)(=O)NCc2ccc(C(=O)N3CCN(C)CC3)cc2)c1` is less than 90%?
Return: Yes

Enquiry: Is it true that viability reported for `FC(F)(F)c1nnc2sc(-c3cccs3)nn12` is less than 90%?
Return: No

Enquiry: Is it true that viability reported for `O=C(Nc1nccs1)c1ccc(COc2ccccc2Br)o1` is less than 90%?
Return: Yes

Enquiry: Is it true that viability reported for `COc1ccc(-c2cc(C(F)(F)F)nc(SCCC(=O)N3CCOCC3)n2)cc1` is less than 90%?
Return: Yes

Enquiry: Is it true that viability reported for `Nc1ncnc(Nc2ccccc2C(F)(F)F)n1` is less than 90%?
Return: No

Enquiry: Is it true that viability reported for CCOC(=O)C1=C(C)NC(SC(C)=O)=NC1c1ccc(OC(C)=O)c(OC)c1 (configuration not stated) is less than 90%?
Return: No

Enquiry: Is it true that viability reported for `CN(C)C(=O)CN(c1ccc(F)c(Cl)c1)S(C)(=O)=O` is less than 90%?
Return: No

Enquiry: Is it true that viability reported for `CC(C)Cn1c(CN2CCN(c3ccccc3F)CC2)nc2c1c(=O)[nH]c(=O)n2C` is less than 90%?
Return: Yes

Enquiry: Is it true that viability reported for `Cc1ccc(OC(=O)CCc2c(C)nc3ncnn3c2C)cc1` is less than 90%?
Return: Yes

====

experimentalProtocol: SK-BR-3 cell growth inhibitors, pilot screen, 24 h, human (AID 572);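 note: compound exposure lasted between 18 and 24 h rather than exactly 24 h; 100% = carrier-treated control wells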
experimentalSetup: SK-BR-3 viability, CellTiter-Glo luminescence, at 10 µM, stronger effect = lower value
Active and inactive are the calls of the source.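 The calls were made as follows: active = viability at or below 10% of carrier control in both of two separate runs; inconclusive = viability at or below 10% in only one of the two runs; inactive = the rest.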
Provide the recorded viability for the entries that follow.

Entry Cc1ccc(S(=O)(=O)NCC(=O)N(CC(=O)NCc2ccccc2)CC2CCCO2)cc1 (stereo unspecified) , viability reported as 110% (inactive)

Entry `Cc1ccc2nc(NCCCN3CCOCC3)c(C=NCCCN3CCOCC3)c(=O)n2c1` , viability reported as 102% (inactive)

Entry `O=C(Nc1cccc(O)c1)c1ccccc1` , viability reported as 93% (inactive)

Entry `Cc1ccc2nc(SCC(=O)NCc3ccco3)c(C#N)cc2c1` , viability reported as 90.5% (inactive)

Entry `CN(C)/C=N/c1ncnc2c1cnn2-c1ccc(C(F)(F)F)cn1` , viability reported as 108% (inactive)

Entry `CC1(C)Cc2nc3oc4c(N(CCO)Cc5ccccc5)ncnc4c3cc2CO1` , viability reported as 95.5% (inactive)

====

experimentalProtocol: reversal of MRP1-mediated doxorubicin resistance, pilot screen, H69AR cells, doxorubicin co-treatment (AID 601)
experimentalSetup: H69AR cells + 2 uM doxorubicin, CellTiter-Glo, 72 h; at 10 µM; stronger effect = higher value
Provide the recorded differential viability (reversal) for the entries that follow.
Numeric answer only, unit % assumed.

Entry `O=C(O)Cn1cc(C(=O)c2ccco2)c2ccccc21` , differential viability (reversal) reported as -4.73

Entry COc1ccc(C(CC(=O)O)NC(=O)c2ccccc2)cc1OC (configuration not stated) , differential viability (reversal) reported as -6.46

Entry `COC(=O)c1ccccc1NC(=O)c1ccc(COc2ccccc2)o1` , differential viability (reversal) reported as 0.68

Entry `CCCCc1ccc(NC(=O)c2c(C)noc2C)cc1` , differential viability (reversal) reported as 0.065

Entry `Cc1oc2c(CN3CCCC3)c(O)ccc2c(=O)c1-c1ccccc1` , differential viability (reversal) reported as 2.93

Entry `COc1cccc(C(=O)Nc2ccc(N(C)C)cc2)c1OC` , differential viability (reversal) reported as 10.3

Entry `CCOc1ccc(N(CC)C(=O)COc2cc(=O)n(C)c3ccccc23)cc1` , differential viability (reversal) reported as -2.48

Entry CCOC(=O)Cn1nnnc1C(C(C)C)N(Cc1cc2c(C)cc(C)cc2[nH]c1=O)C1CCCC1 (configuration not stated) , differential viability (reversal) reported as -1.4

Entry COc1ccc(N2C(=O)CC(NC3CC3)C2=O)cc1 (configuration not stated) , differential viability (reversal) reported as 0.64

Entry Cc1ccc2c(c1C)NC(C)CC2C (configuration not stated) , differential viability (reversal) reported as 8.96

Entry CC(CCc1ccccc1)NCc1ccncc1 (configuration not stated) , differential viability (reversal) reported as -4.29

Entry `COc1cccc(N2CCN(Cc3nc(N)nc(Nc4ccccc4OC)n3)CC2)c1` , differential viability (reversal) reported as -7.01
